Hi, quick share: literature pIC50 data for cGMP-inhibited 3',5'-cyclic phosphodiesterase 3A (Homo sapiens, UniProt Q14432), several sources combined.
pIC50: −log10 of the molar value.
Decide by pIC50: equal to or exceeding 6 means true (1), less means false (0).

COc1ccc(C2=NN(CCCCOc3ccc(C4=NNC(=O)C4(C)C)c(F)c3F)C(=O)C2(C)C)c2sc(C(F)(F)F)nc12 = true (1)

INPUT: Does pIC50 meet or surpass 6 for `N#Cc1ccc(Oc2ccc3c(c2)COB3O)cc1` ?
OUTPUT: false (0)

INPUT: Does pIC50 meet or surpass 6 for `CCCOCCn1c(=O)c(NCCN2CCOCC2)nc2cnc(-c3ccc(OC)nc3)cc21` ?
OUTPUT: false (0)
